Listed compounds paired with reported z-score
Test: HepG2 cell viability effects, profiling panel, calcein-AM fluorescence, 48 h, basal (AID 1164); also: test concentration not given here
Details: higher = more signal
Would you mind answering with just the numeric figure?

Illustrative cases are given below, each with its answer.
CCOC(=O)C1=CC[C@@H](c2ccccc2)N(S(=O)(=O)c2ccc(C)cc2)[C@H]1c1ccccc1C	-0.0628
C=CCC(OC(C)=O)[C@@H]1[C@@H](N(Cc2cc3ccccc3o2)C(=O)c2cccc3ccccc23)c2cc(OCCCO)ccc2N1C(=O)c1ccc(-c2ccccc2)cc1 (some centres undefined)	0.168
COCCOC(=O)N1C(=O)[C@@]2(c3cc(C#CCC(C(=O)OC)C(=O)OC)ccc31)[C@H](c1ccccc1OCCO)N1[C@H](c3ccccc3)[C@H](c3ccccc3)OC(=O)[C@H]1[C@@H]2C(=O)NC[C@H](O)c1ccccc1	0.015

# context switch: different compound, same z-score
query: Please give the measured z-score for this compound: COC(=O)[C@@]1(Cc2ccccc2)N=C(c2ccc(OCCCO)cc2)O[C@H]1c1ccccc1
result: -1.69

----------
Target: Calmodulin-1 (Homo sapiens) (UniProt P0DP23)
Assay: CALM1 binders on microarrays, EGTA buffer, profiling panel, biochemical, small-molecule microarray, Cy5-labelled CALM1 (AID 1111);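 also: labelled calmodulin applied in Tris saline Tween buffer holding calcium plus EGTA and DTT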
Details: Cy5-CALM1 binding fluorescence, higher = more signal
Listed compounds paired with reported composite z-score
Would you mind answering with just the numeric figure?

Illustrative cases are given below, each with its answer.
COC(=O)C(CC#Cc1ccc2c(c1)[C@]1(C(=O)N2)[C@H](C(=O)Nc2nc3ccccc3s2)[C@H]2C(=O)O[C@H](c3ccccc3)[C@H](c3ccccc3)N2[C@@H]1c1ccc(O)cc1)C(=O)OC	0.728
CC(C)C(=C=CC[C@@H](O)c1ccc(OCCO)cc1)C[C@@H](O)COCc1ccccc1	-0.774
O=C(NCCN1CCOCC1)C1N=C(c2ccc(OCCCO)cc2)N(c2ccccc2)O1 (stereo not drawn)	0.745
O=C1O[C@@H](c2ccccc2)[C@@H](c2ccccc2)N2[C@@H](c3ccccc3OCCO)[C@]3(C(=O)Nc4ccccc43)[C@@H](C(=O)Nc3nc4ccccc4s3)[C@H]12	1.41
C=C(C)[C@@H]1CC=C(C(O)C2C=CC3C(=O)N(C)C(=O)C3N2Nc2ccccc2)CC1 (stereo partly drawn)	-0.27

query: Please give the measured composite z-score for this compound: CN(C)C(=O)[C@@]1(CCS(=O)(=O)c2ccccc2)COC(c2ccc(OCCCO)cc2)=N1
result: 0.614

query: Please give the measured composite z-score for this compound: CC#CC(=O)Oc1ccccc1C=CC(=O)OCC
result: 0.0515

query: Please give the measured composite z-score for this compound: CCCCCN1CC=CC23O[C@@H]4/C=C\CCC(C)OC(=O)C4[C@H]2C(=O)N(C(C)CO)[C@@H]3C1=O (stereo partly drawn)
result: -0.213

----------
Listed compounds paired with reported composite z-score
Experiment: small-molecule microarray binders of probe aDKK1, primary screen, biochemical, biotinylated probe, 635/667 nm fluorescence (AID 1099);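 also: score merges 667nm spot fluorescence with signal to noise across triplicate slides; reference of the scale not given here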
Conditions: higher = more signal
Would you mind answering with just the numeric figure?

Illustrative cases are given below, each with its answer.
N#Cc1ccc(NN2C(C(O)C(c3ccccc3)c3ccccc3)C=CC3C(=O)N(c4ccccc4)C(=O)C32)cc1 (centres undefined)	0.609
C[C@@]1([C@@H](NC(=O)c2ccc(-c3ccccc3)cc2)c2ccc(Cl)cc2)C[C@H]1C1CCCCC1	1.13
COc1cc2c(cc1OC)CN(C(=O)[C@H]1[C@@H]3C(=O)O[C@@H](c4ccccc4)[C@@H](c4ccccc4)N3[C@@H](c3ccc(O)cc3)[C@]13C(=O)Nc1ccccc13)CC2	-0.0009
COC(=O)[C@@]1(CCC(=O)OC(C)(C)C)N=C(c2ccc(OCCCO)cc2)O[C@H]1c1ccccc1N=[N+]=[N-]	0.255
CC1(C)[C@@H]2CC(C(O)C3C=CC4C(=O)N(Cc5ccccc5)C(=O)C4N3n3cnnc3)=C[C@H]1C2 (some centres undefined)	0.454
Cc1ccc(S[C@]2(C(=O)NCCCN(C)C)CC(=O)N(Cc3cc(C(F)(F)F)cc(C(F)(F)F)c3)[C@@H]2c2ccc(CO)cc2I)cc1	0.703
COC(=O)[C@@]1(Cc2ccc(OC)cc2)[C@H]2c3cc(C(=O)N(C)C)n(Cc4ccc(S(C)(=O)=O)cc4)c3C[C@H]2CN1C(=O)c1ccccc1	0.511
COC(=O)[C@@]1(Cc2ccc(OC)cc2)[C@H]2c3cc(C(=O)N4CCCC4)n(Cc4ccc(O)c(OC)c4)c3C[C@H]2CN1C(=O)c1ccccc1	1.92

query: Please give the measured composite z-score for this compound: C[N+](C)(C)CCCCNC(=O)[C@H]1C[C@H]2C(=O)N3CCC[C@H]3C(=O)N2[C@H]1c1cccc(OCCO)c1
result: 0.0086

query: Please give the measured composite z-score for this compound: CCCCN1CC=CC23O[C@@H]4C=CCCOC(=O)C4[C@H]2C(=O)N(CCCCCCO)[C@@H]3C1=O (some centres undefined)
result: -0.466
